The reported numbers originate from patent US9688764B2.

# target: T1, hPRLR.mFc (soluble dimeric human PRLR) (Homo sapiens, UniProt P16471)
# T1 construct: dimeric (hPRLR.mFc)
# T1 sequence (P16471 with tags, fused parts or gaps): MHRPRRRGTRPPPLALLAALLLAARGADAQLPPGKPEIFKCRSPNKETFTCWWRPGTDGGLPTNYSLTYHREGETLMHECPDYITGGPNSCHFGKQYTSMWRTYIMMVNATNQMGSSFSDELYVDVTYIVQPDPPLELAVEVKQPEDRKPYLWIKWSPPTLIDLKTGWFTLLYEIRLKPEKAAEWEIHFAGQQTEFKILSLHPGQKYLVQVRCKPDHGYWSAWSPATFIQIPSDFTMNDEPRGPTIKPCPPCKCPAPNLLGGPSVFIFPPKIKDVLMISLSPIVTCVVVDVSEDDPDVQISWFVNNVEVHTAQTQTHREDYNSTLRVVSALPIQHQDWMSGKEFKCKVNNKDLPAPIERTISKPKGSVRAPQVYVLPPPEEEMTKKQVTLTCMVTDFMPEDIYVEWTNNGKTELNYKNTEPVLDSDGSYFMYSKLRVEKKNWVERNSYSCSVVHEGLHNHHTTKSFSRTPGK
# experimental-protocol: Surface plasmon resonance (Biacore T200), mAb-capture format
# Type: binding
# particulars: 25° C., antibody-capture format, analyte hPRLR.mFc
Parameter: Kd. Scope: all listed entries.
Put your answer as a value accompanied by its unit after it.

molecule	Kd
H1H6797P: anti-PRLR antibody, human IgG1 Fc; HCVR/LCVR SEQ ID NOs 178/186 (antibody, V domains shown, human IgG1 Fc) VH: EVQLVESGGGLVQPGGSLRLSCIVSGFTFSGSWMSWVRQLPGKGLEWVANIKEDGSDSYYVDSVEGRFTISRDNAKSSLYLQMNSLRVDDTAVYFCARARTVPLHYWGQGTLVTVSS VL: DIQMTQSPSTLSASVGDRVTITCRASQSINIWLAWYQQKPGKAPKLLIYRASYLESGVPSSFAGGGSGTEFTLTISSLQPDDFGTYYCQHYNSYPFTFGQGTKLEIK	0.122 nM
H1H6975N: human IgG1 Fc form of H2M6975N; anti-PRLR; HCVR/LCVR SEQ ID NOs 370/378 (antibody, V domains shown, human IgG1 Fc) VH: EVHLVESGGGLVQPGGSLRLSCAASGFTFSSYEMNWVRQTPGKGLEWISHISSRSVIIYYADSVKGRFTISRDNAKNSLFLQMNSLRAEDTAVYFCAGITIFGIPEYWGQGTLVTVSS VL: EIVLTQSPATLSLSPGERATLSCRASQSVSSYFAWYQQKPGQAPRLLIYDASSRATGIPTRFSGSGSGTDFTLTISSLEPEDFAVYYCQQRSSWPITFGQGTRLEIK	0.0684 nM

Q: Quick one: Kd of H1H6785P: anti-PRLR antibody, human IgG1 Fc; HCVR/LCVR SEQ ID NOs 98/106 (antibody, V domains shown, human IgG1 Fc) VH: EVQLVESGGGLVQPGGSLRLSCAASGFTFSSYEMNWVRQAPGKGLEWISYISSRGGTIYYADSIKGRFTIYRDNARNSLYLQMNSLRAEDTAIYYCARLSGVDIFDIWGQGTMVTVSS VL: DIQMTQSPSSLSASVGDRVTITCRASQGISNYLAWYQQKPGKVPKLLIYFASTLQSGVPSRFSGGGSGTDFTLTISSLQPEDVATYYCQRYNSAPLTFGGGTKVEIK ?
A: 0.231 nM

Q: I'd like to know its Kd. The molecule in question is H1H6782P: anti-PRLR antibody, human IgG1 Fc; HCVR/LCVR SEQ ID NOs 66/74; non-blocking (antibody, V domains shown, human IgG1 Fc) VH: EVQLVESGGGLVQPGRSLRLSCAASGFTFDDYAMHWVRQAPGKGLEWVSGIIWNSGHIGYGDSVKGRFTISRDNAKKSLYLQMNSLRAEDTALYYCARDSGRYQSYFDYWGQGTLVTVSS VL: DIQMTQSPSTLSASVGDRVTITCRASHIISSWLAWYQQKPGKAPKVLIFKASSLESGVPSRFSGSGSGTEFTLTISSLQPDDFATYYCQQYNTYSRTFGQGTKVEIK
A: 0.225 nM
